# Tested On: purified sickle cell hemoglobin (HbS) (Homo sapiens, UniProt P68871+P69905, E7V)
# Construct: HbS was obtained from the blood of homozygous S/S patients
# Protocol Notes: Binding affinity to purified HbS by Surface Plasmon Resonance (SPR)
# Recorded Conditions: crosslinked biotinylated HbS, 1:1 binding model
pKd: −log10 of the molar value.
Recorded Endpoint: pKd

Field: example entries. Status: answers known.
C[C@H](Oc1cc2cc(F)c(Cl)cc2nc1N)c1ncccc1-n1cccn1; 7.17
C[C@H](Oc1cc2cc(F)ccc2nc1N)c1nc(C(=O)O)ccc1-n1cccn1; 6.24
C[C@H](Oc1cc2ncccc2nc1N)c1nc(O)ccc1-n1cccn1; 6.42

I: C[C@H](Oc1cc2c(F)ccc(F)c2nc1N)c1ncc(F)cc1-n1cccn1
II: Cc1cc2nc(N)c(O[C@@H](C)c3nc4c(cnn4CCO)cc3-n3cccn3)cc2cn1
Which record would sort first by descending pKd, I or II ? Pick one and reply with its label.
I

1: CC(Oc1cc2cc(C(N)=O)c(F)cc2nc1N)c1cc2[nH]ncc2cc1-n1cccn1 (stereo in doubt)
2: Cc1cc2nc(N)c(O[C@@H](C)c3nc(O)ccc3-n3cccn3)cc2cn1
Which record would sort first by descending pKd, 1 or 2 ? Pick one and reply with its label.
1
